Target sequence: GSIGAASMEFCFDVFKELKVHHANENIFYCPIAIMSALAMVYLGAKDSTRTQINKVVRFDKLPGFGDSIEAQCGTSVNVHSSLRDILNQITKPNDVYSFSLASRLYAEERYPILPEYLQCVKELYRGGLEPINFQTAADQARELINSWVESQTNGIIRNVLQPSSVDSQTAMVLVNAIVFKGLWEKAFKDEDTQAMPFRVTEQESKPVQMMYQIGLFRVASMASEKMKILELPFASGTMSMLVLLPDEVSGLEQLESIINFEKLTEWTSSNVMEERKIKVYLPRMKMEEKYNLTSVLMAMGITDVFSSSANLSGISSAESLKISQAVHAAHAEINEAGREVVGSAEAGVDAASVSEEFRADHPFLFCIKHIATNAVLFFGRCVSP

| Test Smiles | Kd [µM] |
| --- | --- |
| CCCCCCCCCCCCOS(=O)(=O)O | 11.7 |
